# ASSAY NAME: in vivo
# TEST PARAMETERS: both, cynomolgus monkey, iv, 3 mg/kg
PROPERTY NAME: AUC(0-t) (µg·h/mL)
Give the value, in units of µg·h/mL, as a plain number.

Any idea what its AUC(0-t) is? The compound is O=C(NN1C(=O)C2C3C=CC(C4CC34)C2C1=O)c1ccc(C(F)(F)F)cc1 (stereo not shown) [ST-246]
5.65

###

# ASSAY NAME: in vivo
# TEST PARAMETERS: female, New Zealand White, rabbit, iv, 60 mg/kg, AUC0-24
PROPERTY NAME: AUC(0-t) (ng·h/mL)
Give the value, in units of ng·h/mL, as a plain number.

Any idea what its AUC(0-t) is? The compound is O=C(NN1C(=O)C2C3C=CC(C4CC34)C2C1=O)c1ccc(C(F)(F)F)cc1 (stereo not shown)
60100

###

# ASSAY NAME: in vivo
# TEST PARAMETERS: both, cynomolgus monkey, po, 20 mg/kg
PROPERTY NAME: Tmax (h)
Give the value, in units of h, as a plain number.

Any idea what its Tmax is? The compound is O=C(NN1C(=O)C2C3C=CC(C4CC34)C2C1=O)c1ccc(C(F)(F)F)cc1 (stereo not shown)
3.2

###

# ASSAY NAME: in vivo
# TEST PARAMETERS: female, mouse, po, 100 mg/kg, AUC0-24
PROPERTY NAME: AUC(0-t) (µg·h/mL)
Give the value, in units of µg·h/mL, as a plain number.

Any idea what its AUC(0-t) is? The compound is O=C(NN1C(=O)C2C3C=CC(C4CC34)C2C1=O)c1ccc(C(F)(F)F)cc1 (stereo not shown) [ST-246]
456

###

# ASSAY NAME: in vivo
# TEST PARAMETERS: both, New Zealand White, rabbit, iv, 30 mg/kg, AUC0-24 hr
PROPERTY NAME: AUC(0-t) (ng·h/mL)
Give the value, in units of ng·h/mL, as a plain number.

Any idea what its AUC(0-t) is? The molecule is O=C(NN1C(=O)C2C3C=CC(C4CC34)C2C1=O)c1ccc(C(F)(F)F)cc1 (stereo not shown)
13300

###

# ASSAY NAME: in vivo
# TEST PARAMETERS: female, CD-1, mouse, iv, 75 mg/kg, mean Cmax
PROPERTY NAME: Cmax (µg/mL)
Give the value, in units of µg/mL, as a plain number.

Any idea what its Cmax is? The compound is O=C(NN1C(=O)C2C3C=CC(C4CC34)C2C1=O)c1ccc(C(F)(F)F)cc1 (stereo not shown) [ST-246]
238

###

# ASSAY NAME: in vivo
# TEST PARAMETERS: female, BALB/c, mouse, po, 1000 mg/kg, Cmax
PROPERTY NAME: Cmax (µg/mL)
Give the value, in units of µg/mL, as a plain number.

Any idea what its Cmax is? The molecule is O=C(NN1C(=O)C2C3C=CC(C4CC34)C2C1=O)c1ccc(C(F)(F)F)cc1 (stereo not shown) [ST-246]
66

###

# ASSAY NAME: in vivo
# TEST PARAMETERS: female, mouse, po, 300 mg/kg, AUC0-24
PROPERTY NAME: AUC(0-t) (µg·h/mL)
Give the value, in units of µg·h/mL, as a plain number.

Any idea what its AUC(0-t) is? The compound is O=C(NN1C(=O)C2C3C=CC(C4CC34)C2C1=O)c1ccc(C(F)(F)F)cc1 (stereo not shown) [ST-246]
669
